Tested on: HCT-116 (colon cancer)
Test: MTT cell viability assay, HCT-116
Type: cell-based
Stated Conditions: Homo sapiens, HCT-116, read-out: Cytotoxicity %, HCT-116
# cytotoxicity at 100 µM annotations
// return the numeric value with its unit appended

Sample CCCS(=O)(=O)Oc1ccc(C=NNC(=O)c2nc3ccccc3s2)cc1OC [6k] ; cytotoxicity at 100 µM observed: 77.2%

Per the records, this compound ( CCS(=O)(=O)Oc1ccc(C=NNC(=O)c2nc3ccccc3s2)cc1OC [6h] ) has cytotoxicity at 100 µM equal to 55.2%

Please fill in: cytotoxicity at 100 µM reported for CCCS(=O)(=O)Oc1ccc(C=NNC(=O)c2nc3ccccc3s2)cc1 [6j] = 68.5%

For record CS(=O)(=O)Oc1ccc(C=NNC(=O)c2nc3ccccc3s2)cc1 [6d] the listed cytotoxicity at 100 µM is 66.7%

Entry CCS(=O)(=O)Oc1ccc(C=NNC(=O)c2nc3ccccc3s2)cc1 [6g] — recorded cytotoxicity at 100 µM = 68.6%

Others:
Record COc1cc(C=NNC(=O)c2nc3ccccc3s2)ccc1OS(C)(=O)=O [6e] , field cytotoxicity at 100 µM: 61.1%

So, COc1ccc(C=NNC(=O)c2nc3ccccc3s2)cc1OS(C)(=O)=O [6f] ? Its cytotoxicity at 100 µM was 62.8%
